Where do these numbers come from? They come from the supplement of paper PMC10567573.

B1: KLHL14 (parent)
chain: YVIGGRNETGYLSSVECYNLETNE

- Variants of: B1
- protocol_details: protein stability index of a GFP-peptide fusion (GPS, HEK-293T) (PSI 1-6); higher = more stable;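 note: lentivirally expressed fusions sorted by FACS into six bins by GFP to DsRed ratio, PSI derived from sequencing read proportions per bin multiplied by bin number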
- condition_label: c terminus: a fixed tail appended
So basically: protein stability index at 2 or higher? That is satisfied. Lower than 2? That is not satisfied.

# variant_annotation, discrete_label
records = [
    ("N7C", "not satisfied"),
    ("Y18M", "satisfied"),
    ("V2W", "satisfied"),
    ("Y11P", "satisfied"),
    ("L20T", "satisfied"),
    ("N23V", "satisfied"),
    ("I3Y", "not satisfied"),
    ("T9S", "not satisfied"),
    ("E8A", "not satisfied"),
    ("T22F", "not satisfied"),
]
